Experiment: qHTS of pediatric cancer cell lines to identify multiple opportunities for drug repurposing: Primary screen for RD cells (AID 1347104); note: potency is the fitted concentration of half-maximal effect; nearly all actives have a fitted effect of over 55% in size
Settings: RD rhabdomyosarcoma viability, CellTiter-Glo luminescence, 48 h; series mostly up to 46 µM
Results filed as inconclusive are left out. The source made the active and inactive calls. Calls come from the whole dose curve; as a rule, active = well fitted cell-killing curve with a large enough effect; inconclusive = small, poorly fitted or top-dose-only effect; inactive = flat fitted curve, though single readings scatter.
Potency: recorded values

Smiles str | Potency
CN(CC(=O)N(Cc1ccc(C2CCCCC2)cc1)c1ccc(C(=O)O)c(O)c1)S(=O)(=O)c1c(F)c(F)c(F)c(F)c1F | 37.2 µM (active)
CCc1ccc(C(=O)Nc2cc(CN3CCN(C)CC3)cc(C(F)(F)F)c2)cc1C#Cc1cnc2ccnn2c1 | 18.7 µM (active)

---

Test: qHTS of pediatric cancer cell lines to identify multiple opportunities for drug repurposing: Primary screen for OHS-50 cells (AID 1347103); note: nearly all actives have a fitted effect of over 40% in size
Details: OHS-50 osteosarcoma viability, CellTiter-Glo luminescence, 48 h; series mostly up to 57.3 µM
Results filed as inconclusive are left out. The source made the active and inactive calls. Calls follow the shape of the dose curve; as a rule, active = well fitted cell-killing curve with a large enough effect; inconclusive = small, poorly fitted or top-dose-only effect; inactive = no such curve, though single readings can be large or run the other way.
Labels: label 1 = active, label 0 = inactive

Compound | Category label
O=C1NC(O)CCN1[C@@H]1O[C@H](CO)[C@H](O)[C@H]1O (some centres undefined) | label 0
CN1CCCN(C(=O)c2cccc(-c3ccc(C=C4C(=O)Nc5ccc(Cl)cc54)o3)c2)CC1 | label 1
CC(Cc1ccc(O)c(O)c1)(NN)C(=O)O (centres undefined) | label 0
Cn1cc(CNCC2CCN(c3ncc(C(=O)NO)cn3)CC2)c2ccccc21 | label 1

---

Assay: qHTS of pediatric cancer cell lines to identify multiple opportunities for drug repurposing: Primary screen for SK-N-SH cells (AID 1347098); note: nearly all actives have a fitted effect of over 65% in size
Conditions: SK-N-SH viability, CellTiter-Glo luminescence, 48 h; series mostly up to 57 µM
Inconclusive results are not listed. Active and inactive are the calls of the source. Calls come from the whole dose curve; as a rule, active = well fitted cell-killing curve with a large enough effect; inconclusive = small, poorly fitted or top-dose-only effect; inactive = no such curve, though single readings can be large or run the other way.
Labels: active, inactive

Compound | Category label
Cc1ccccc1C(=O)Nc1ccc(C(=O)N2CCCC(O)c3cc(Cl)ccc32)c(C)c1 (stereo not given) | inactive
C=C[C@@H]1CN2CCC1C[C@H]2[C@H](O)c1ccnc2ccc(OC)cc12 (stereo not given in full) | inactive
FC(F)(F)c1ccc(Nc2nc3ccc(Oc4ccnc(-c5ncc(C(F)(F)F)[nH]5)c4)cc3[nH]2)cc1 | active
NC(=O)Nc1sc(-c2ccc(F)cc2)cc1C(N)=O | active
C=C1C(=O)O[C@H]2[C@@H]1CCC(C)=CCC[C@@]1(C)O[C@@H]21 | active
CC(=O)N1CCN(c2ccc(OCc3nn(C)c(C)c3-c3cccc4c(CCCOc5cccc6ccccc56)c(C(=O)O)n(Cc5cccnc5)c34)cc2)CC1 | active
O=C(c1ccc(F)cc1)N1CCC[C@H](c2nc(-c3ccc(F)cc3)no2)C1 | active
COC(=O)[C@@H]1[C@H]2C[C@@H]3c4[nH]c5ccccc5c4CCN3C[C@@H]2CC[C@@H]1O | inactive
OCc1ccccc1O[C@@H]1O[C@H](CO)[C@H](O)[C@H](O)[C@H]1O | inactive
Cc1ccc(O)c(C(CCN(C(C)C)C(C)C)c2ccccc2)c1 (stereo not given) | inactive

---

Assay: NS1 protein of Zika virus - qHTS assay to identify small molecule inhibitors in human HEK 293 cells (AID 1347053); note: nearly all actives have a fitted effect of over 55% in size
Settings: HEK293 ZIKV MR766 infection, NS1 TR-FRET, 24 h; series mostly up to 46.1 µM
Results filed as inconclusive are left out. Activity calls are given as the source filed them. The call rests on the fitted dose curve; in most records, active means well fitted inhibition curve with a large enough effect; inconclusive means small, poorly fitted or top-dose-only effect; inactive means no such curve, though single readings can be large or run the other way.
Labels: active, inactive

Molecule | Category label
CNC(=O)c1cccc(-c2ccc3c(N4CCOC[C@H]4C)nc(N4CCOC[C@H]4C)nc3n2)c1 | inactive
CCCc1nc(C(C)(C)O)c(C(=O)O)n1Cc1ccc(-c2ccccc2-c2nn[nH]n2)cc1 | inactive
COc1ccc(S(=O)(=O)Nc2cc(-c3c(O)ccc4ccccc34)c(O)c3ccccc23)cc1 | inactive
CCc1ccc(C(=O)Nc2cc(CN3CCN(C)CC3)cc(C(F)(F)F)c2)cc1C#Cc1cnc2ccnn2c1 | active
COc1cc(C(C)C)c(Oc2cnc(NC(CO)CO)nc2N)cc1I | inactive
COc1cccc2c1C(=O)c1c(O)c3c(c(O)c1C2=O)C[C@@](O)(C(=O)CO)C[C@@H]3O[C@H]1C[C@H](N)[C@H](OC2CCCCO2)[C@H](C)O1 (stereo partly drawn) | active
OC[C@H]1OC(O)C[C@@H](O)[C@H]1O (stereo partly drawn) | inactive
C[C@@]12C(=O)OC(=O)[C@@]1(C)C1CCC2O1 | active
CC(=O)N1CCN(c2ccc(OCc3nn(C)c(C)c3-c3cccc4c(CCCOc5cccc6ccccc56)c(C(=O)O)n(Cc5cccnc5)c34)cc2)CC1 | inactive
NS(=O)(=O)OC[C@@H]1C[C@@H](n2ccc3c(N[C@H]4CCc5ccccc54)ncnc32)C[C@H]1O | inactive
C#Cc1cccc(Nc2ncnc3cc(OCCOC)c(OCCO)cc23)c1 | inactive
CC(Cc1ccc(O)c(O)c1)(NN)C(=O)O (stereo not drawn) | inactive
C[C@H](CCC(=O)O)[C@H]1CCC2C3C[C@H](O)[C@@H]4C[C@H](O)CC[C@]4(C)C3CC[C@@]21C (stereo partly drawn) | inactive
CC(C)OC(=O)[C@H](C)N[P@](=O)(OC[C@H]1O[C@@H](n2ccc(=O)[nH]c2=O)[C@](C)(F)[C@H]1O)Oc1ccccc1 | inactive
CC(Oc1ccc(O)cc1)(P(=O)(O)O)P(=O)(O)O | inactive
CC(C=CC(=O)NO)=C[C@@H](C)C(=O)c1ccc(N(C)C)cc1 | inactive
COc1cc([C@@H]2c3cc4c(cc3[C@@H](O[C@@H]3O[C@@H]5CO[C@@H](c6cccs6)O[C@@H]5[C@H](O)[C@@H]3O)[C@H]3COC(=O)[C@H]23)OCO4)cc(OC)c1O | active
CC(=O)C1=C(O)C=C2Oc3c(C(C)=O)c(O)c(C)c(O)c3C2(C)C1=O (stereo not drawn) | inactive
O=C(O)[C@H](CC(=O)N1C[C@@H]2CCCC[C@H]2C1)Cc1ccccc1 | inactive
FC(F)c1nc2ccccc2n1-c1nc(N2CCOCC2)nc(N2CCOCC2)n1 | active
CCCCCCCCCCCCCCCC(=O)OC[C@@H](NC(=O)C(Cl)Cl)[C@H](O)c1ccc([N+](=O)[O-])cc1 | inactive
c1coc(CNc2ncnc3nc[nH]c23)c1 | inactive
C[C@H](NCc1ccc(OCc2cccc(F)c2)cc1)C(N)=O | active

---

Test: qHTS of pediatric cancer cell lines to identify multiple opportunities for drug repurposing: Primary screen for SJ-GBM2 cells (AID 1347091)
Conditions: SJ-GBM2 viability, CellTiter-Glo luminescence, 48 h; series mostly up to 46 µM
Inconclusive results are not listed. Calls of active or inactive are those of the source. Calls come from the whole dose curve; as a rule, active = well fitted cell-killing curve with a large enough effect; inconclusive = small, poorly fitted or top-dose-only effect; inactive = no such curve, though single readings can be large or run the other way.
Labels: active, inactive

Compound | Category label
Cc1cnn(C)c1C(=O)Nc1cc(Nc2ccc3c(C=Cc4ccccn4)n[nH]c3c2)ccc1F | active
C=CC(=O)Nc1cccc(Nc2nc(NC3CCC(N(C)C)CC3)nc3c2ncn3C(C)C)c1 (stereo not drawn) | active
CN[C@H]1[C@@H](O)[C@@H]2O[C@@H]3O[C@H](C)CC(=O)[C@]3(O)O[C@@H]2[C@@H](NC)[C@H]1O | active
CON=C(C(=O)N[C@@H]1C(=O)N2C(C(=O)O)=C(Cn3ccc(=N)n3CCO)CS[C@H]12)c1csc(N)n1 | inactive
CCc1ccc(C(=O)Nc2cc(CN3CCN(C)CC3)cc(C(F)(F)F)c2)cc1C#Cc1cnc2ccnn2c1 | active
O=C(Nc1ccc(Oc2ccnc3[nH]ccc23)c(F)c1)c1cccn(-c2ccc(F)cc2)c1=O | active
NC(=O)c1ncn([C@@H]2O[C@H](CO)[C@@H](O)[C@@H]2O)c1N | inactive
Nc1nc(=O)n([C@H]2CSC(CO)O2)cc1F (stereo partly drawn) | inactive
Oc1cc2c(cc1O)C1c3ccc(O)c(O)c3OCC1(O)C2 (stereo not drawn) | inactive
CCC[C@H]1C[C@H](C(=O)N[C@@H]([C@@H]2O[C@@H](SC)[C@@H](O)[C@@H](O)[C@@H]2O)[C@H](C)Cl)N(C)C1 | inactive
Cn1cc(C=CC(=O)c2cccc(F)c2)cc1C=CC(=O)NO | inactive
CN1CCc2c(c3ccccc3n2Cc2ccc(C(=O)NO)cc2)C1 | active
COc1cc(OC)c(C=CS(=O)(=O)Cc2ccc(OC)c(NCC(=O)O)c2)c(OC)c1 | active
Cc1cn([C@@H]2O[C@H](CO)[C@@H](O)[C@H]2F)c(=O)[nH]c1=O | inactive
CN(C)c1ccc(C(=O)NCCCCCCC(=O)NO)cc1 | active
CC(C)N1[N]C(=C2C=c3cc(O)ccc3=N2)c2c(N)ncnc21 | active
O=c1ccn([C@@H]2O[C@H](CO)[C@H](O)[C@@H]2F)c(=O)[nH]1 | inactive
C[C@@H]1CC[C@@]2(OC1)OC1CC3C4CC=C5CC(O)CCC5(C)C4CCC3(C)C1[C@@H]2C (stereo partly drawn) | inactive
CC(=CC(=O)Nc1ccccc1C(=O)O)c1ccc2ccccc2c1 | inactive
C#C[C@]1(O)CC[C@@H]2[C@@H]3CCc4cc(O)ccc4[C@H]3CC[C@@]21C | active
C[C@@H]1C(=O)O[C@H]2CC34[C@H]5C[C@@H](C(C)(C)C)C36[C@H](OC(=O)[C@@H]6O)O[C@@]4(C(=O)O5)[C@]21O (stereo partly drawn) | inactive
CN(C)CC[C@H](c1ccc(Cl)cc1)c1ccccn1 | inactive
CCN(CC)Cc1ccc2cc(COC(=O)Nc3ccc(C(=O)NO)cc3)ccc2c1 | active
COc1ccc2c(c1OC)C(=O)OC2[C@H]1c2c(cc3c(c2OC)OCO3)CCN1C (stereo partly drawn) | active
Cc1ccc(O)c(C(CCN(C(C)C)C(C)C)c2ccccc2)c1 (stereo not drawn) | inactive
Cn1cc(C2=C(c3c4n(c5ccccc35)CCC(CN)C4)C(=O)NC2=O)c2ccccc21 (stereo not drawn) | active
CC(C)N(CC[C@H](c1ccccc1)c1cc(CO)ccc1O)C(C)C | inactive
C[C@]12C=CC(=O)N[C@@H]1CC[C@H]1[C@H]3CC[C@@H](C(=O)Nc4cc(C(F)(F)F)ccc4C(F)(F)F)[C@@]3(C)CC[C@@H]12 | active
